Provide the reported melting point of each item.

The molecule listed as CCC1(CC(=O)O)OCCc2c1[nH]c1ccc(OCc3ccccc3)cc21 (stereo not given) shows melting point equal to 163 to 165 °C

The molecule listed as COC(=O)c1cc(C(C)OC(C)C)c(C(F)(F)F)cc1N (stereo not given) shows melting point equal to 87 to 90 °C

The molecule listed as `CC(=O)O[C@@H]1OCC[C@@H]1NC(=O)[C@H](CC(C)C)NC(=O)[C@H](CC(C)C)NC(=O)OCc1ccccc1` shows melting point equal to 175 to 176 °C

The molecule listed as `COc1ccc(C2=NN(C3CCN(C(=O)c4cccnc4)CC3)C(=O)CC2)cc1OC` shows melting point equal to 162 to 164 °C

The molecule listed as `CC(C)(C)OC(=O)c1ccc2c(c1)NCc1ccccc1O2` shows melting point equal to 121 to 123 °C

###

Provide the reported melting point of each item.

The molecule listed as COc1ccc(C(O)C(C)N)cc1OC (stereo unspecified) shows melting point equal to 131 to 132 °C

The molecule listed as CC(Oc1c(Br)cc(Br)cc1Br)c1cc(Br)c(Br)cc1Br (stereo unspecified) shows melting point equal to 110 to 112 °C

The molecule listed as C=C1CCc2c(N3CCC(O)C3)c(F)cc3c(=O)c(C(=O)O)cn1c23 (stereo unspecified) shows melting point equal to 190 to 196 °C

The molecule listed as O=C(NC(Cc1ccccc1)C(=O)O)c1ccc(-c2ccc(OCc3ccccc3)cc2)nc1 (stereo unspecified) shows melting point equal to 240 °C

The molecule listed as `CCOc1nn(-c2ccccc2Cl)c(=O)o1` shows melting point equal to 45 °C

The molecule listed as `CCCCCC[C@@H]1C[C@H](c2ccc(OC)cc2)C(=O)O1` shows melting point equal to 35 to 36 °C

The molecule listed as O=C1CC(CCCl)c2ccccc2N1 (stereo unspecified) shows melting point equal to 112 to 113 °C

The molecule listed as Cn1ccnc1-c1ccc(OCC(O)CNCCOc2ccc(O)c(C(N)=O)c2)cc1 (stereo unspecified) shows melting point equal to 108 to 112 °C

The molecule listed as `CCOC(=O)c1nc2c(Cl)nc3cc(C(F)(F)F)ccc3n2c1CBr` shows melting point equal to 196 to 198 °C

The molecule listed as COc1cccc(OC(c2ccccc2)C(O)C(=O)NC(C)C)c1 (stereo unspecified) shows melting point equal to 118 to 120 °C

The molecule listed as `Cc1cc(Oc2cccc([N+](=O)[O-])c2N(C)C(=O)OC(C)(C)C)cc(C)c1NC(=O)OC(C)(C)C` shows melting point equal to 154 to 156 °C

The molecule listed as COC(=O)C(NC(=O)OC(C)(C)C)c1ccc(OS(=O)(=O)C(F)(F)F)cc1 (stereo unspecified) shows melting point equal to 67 to 67.6 °C

The molecule listed as `CC1(C)COC(C)(C)N1C(=O)OCCN(Cc1ccccc1)Cc1ccccc1` shows melting point equal to 32 °C

The molecule listed as `O=C(O)c1cccc(-n2nnnc2S)c1` shows melting point equal to 181 to 182 °C

The molecule listed as `COc1ccc(-c2[nH]nc3c2C(=O)c2c(NC(=O)NNC(=O)c4ccc(N)cc4)cccc2-3)cc1` shows melting point equal to 247 °C

The molecule listed as `Nc1cc(Oc2ccc(Oc3cc(N)cc(C(F)(F)F)c3)cc2)cc(C(F)(F)F)c1` shows melting point equal to 157 to 158 °C

The molecule listed as `NC(=S)NN=C(CCCOC(=O)Nc1ccccc1)c1ccccc1` shows melting point equal to 140 to 142 °C

The molecule listed as `CC(=O)NC[C@H]1CN(c2ccc(-c3noc(C)n3)c(F)c2)C(=O)O1` shows melting point equal to 177 to 179 °C

The molecule listed as `COc1ccc(OC)c2c(Cl)c(C#N)cnc12` shows melting point equal to 165 to 167 °C

The molecule listed as CC(=O)NC[C@H]1CN(c2ccc3c(c2)CC(C)N3CCF)C(=O)O1 (stereo partly specified) shows melting point equal to 127 to 130 °C

The molecule listed as `C=CCc1cc(C(C)=O)c(O)cc1OCCCCCCCC#N` shows melting point equal to 46 to 48 °C

###

metric: melting point

The molecule listed as `CN1CCC(=C(c2ccc(F)cc2)c2cccnc2)CC1` shows melting point equal to 93.1 °C

The molecule listed as CC1CC(=O)C=C2CCC3C4CCC(=O)C4(C)CCC3C21C (stereo not given) shows melting point equal to 154 °C

The molecule listed as `COC(=O)C(C)(C)c1ccc(Cl)c([N+](=O)[O-])c1` shows melting point equal to 160 to 161 °C

The molecule listed as `COc1ccc(C(=O)O)c(-c2ccc(C(F)(F)F)cc2)c1` shows melting point equal to 232 to 234 °C

The molecule listed as `COc1ccc([C@@H]2Sc3cc(Oc4ccccc4)ccc3NC(=O)[C@@H]2O)cc1` shows melting point equal to 181 to 183 °C

The molecule listed as COc1ccc2c(c1)OC(CNCCCOc1cnc3ccccc3c1)CC2 (stereo not given) shows melting point equal to 132 to 134 °C

The molecule listed as N#Cc1ccc(OCc2ccncc2)cc1OC(C(=O)O)c1ccccc1Cl (racemic) shows melting point equal to 225 to 226 °C

The molecule listed as `COC(=O)Cc1cc(Br)c(S)c(Br)c1` shows melting point equal to 63.5 to 65 °C

The molecule listed as `c1ccc(SC2(Sc3ccccc3)CCCn3cc(-c4ccccc4)nc32)cc1` shows melting point equal to 129 to 131 °C

The molecule listed as CC[C@@H]1CN(c2c(F)c(N)c3c(=O)c(C(=O)O)cn(C4CC4)c3c2F)C[C@H]1N (relative stereo) shows melting point equal to 195 to 196 °C

The molecule listed as `Fc1ccc(NC(=S)NN2CC=C(c3ccccc3)CC2)cc1` shows melting point equal to 192 to 194 °C

The molecule listed as `CN1CCN(c2ccc(Nc3ncc4c(n3)S/C(=C/c3ccc(C(N)=O)cc3)C(=O)N4)cc2)CC1` shows melting point equal to 294 to 298 °C

The molecule listed as `OC(c1ccc2c(c1)CCCN2)(C(F)(F)F)C(F)(F)F` shows melting point equal to 115 to 116 °C

The molecule listed as `CC(C)NNc1ncnc2c1cnn2C` shows melting point equal to 57 °C

The molecule listed as `CCCOc1nc2cc(Cn3ccnc3)ccc2nc1C` shows melting point equal to 85.5 °C

The molecule listed as `Cc1c(-c2ccc(F)cc2)nc(-c2ccccc2)n1C(C)C` shows melting point equal to 161 to 162 °C

The molecule listed as O=C(OC1c2nccnc2C(=O)N1c1ccc2ccc(Cl)cc2n1)N1CCNCC1 (stereo not given) shows melting point equal to 242 °C

The molecule listed as `O=Cc1ccc(OCc2ccccc2)cc1OCc1ccccc1` shows melting point equal to 80 to 81 °C

The molecule listed as `N#Cc1ncc(-c2ccc(Br)cc2)cn1` shows melting point equal to 202 to 204 °C

The molecule listed as `COc1cc2c(cc1C)CCN=C2C1(c2ccsc2)CC1` shows melting point equal to 116 to 118 °C

The molecule listed as `COc1cccc(C(=O)c2cc3ccccc3[nH]2)c1` shows melting point equal to 119 to 121 °C

The molecule listed as `CCn1nccc1-c1ccc2[nH]c3c(cc(-c4ccc(Cl)cc4Cl)c(=O)n3C)c2c1` shows melting point equal to 255 to 258 °C

The molecule listed as Nc1nc(O)c2c(n1)NCC(CCc1nc(C(=O)N[C@@H](CCC(=O)O)C(=O)O)c[nH]1)C2 (stereo not given in full) shows melting point equal to > 260 °C

The molecule listed as `O=C(Nc1ccc(-c2ncc(-c3ccc(NC(=O)C4CCCCCC4)cc3)[nH]2)cc1)c1ccc(Cl)cc1` shows melting point equal to 325 to 327 °C

The molecule listed as `COC(=O)c1cccc(-c2cccc(CC(=O)O)c2)c1` shows melting point equal to 84.5 to 85.5 °C

The molecule listed as `COc1cc(CN[C@H]2CC[C@H](Nc3ccnc4cc(Cl)ccc34)CC2)cc(OC)c1` shows melting point equal to 150 °C

The molecule listed as `C[C@@H]1CN(c2ccc3nc(-c4ccc(F)cc4)c(-c4ccnc5[nH]ccc45)n3n2)CCN1` shows melting point equal to 285 to 287 °C

The molecule listed as `CCCc1cc(C(=O)O)ccc1OCc1ccccc1` shows melting point equal to 163 °C

The molecule listed as `CNC(=O)CN1CCc2cc(Nc3ncc(Cl)c(N[C@H]4[C@@H](C(N)=O)[C@@H]5C=C[C@H]4C5)n3)c(OC)cc2CC1` shows melting point equal to 135 to 145 °C

The molecule listed as `CC(C)n1nc(-c2c(-c3ccccc3)nc(N)nc2-n2cncn2)ccc1=O` shows melting point equal to 266 to 268 °C

The molecule listed as `CN(C)CCN(C(=O)N(C)C)c1ccc(N)cn1` shows melting point equal to 118 to 119 °C

The molecule listed as `O=[N+]([O-])c1cc(C(F)(F)F)ccc1NCCN1CCN(C(c2ccccc2)c2ccccc2)CC1` shows melting point equal to 152 °C

The molecule listed as CC1(C)OCCC2C(C3(O)CCSC3)C(=O)N21 (stereo not given) shows melting point equal to 113 to 115 °C

The molecule listed as `Nc1nccc(-c2cn(-c3ccccc3)nc2-c2ccc(F)cc2)n1` shows melting point equal to 170 to 171 °C

The molecule listed as `O=C(C1CCCCC1)C1CCN(S(=O)(=O)c2ccccc2)CC1` shows melting point equal to 141 to 143 °C

The molecule listed as `COc1cc(C(=O)c2ncc3c(C(=O)N(C)C)cccn23)ccc1[N+](=O)[O-]` shows melting point equal to 176 °C

The molecule listed as CC(C)(C)OC(=O)N1CC[C@@H](CN(Cc2ccccc2)Cc2ccccc2)[C@H](O)C1 (relative stereo) shows melting point equal to 133 °C

The molecule listed as `O=c1ccc2ccc(OCCCN3CCCN(c4cccc(Cl)c4Cl)CC3)cc2[nH]1` shows melting point equal to 117 to 118 °C

The molecule listed as `CCCc1oc2ccc([N+](=O)[O-])cc2c1C(=O)c1ccc(OC)cc1` shows melting point equal to 73 °C

The molecule listed as `N#Cc1ccc(C=O)c(-c2cccs2)c1` shows melting point equal to 114 °C
